Molecular target: Mad2^R133A (human, UniProt Q13257 1-205, R133A)
Test: ITC
pKd: −log10 of the molar value.

binder	pKd
EHQKAWALNLNGFDVEEAKILRLSGKPQ (domain or fragment, Limits not printed. 111-138 is the conventional Mad2-binding fragment of human Cdc20 around the KILR motif (129-132). Check residues come from the candidate's motif feature, not from the paper.) [Mad2-binding motif of Cdc20]	6.85
